target-desc: GST-Ap-NF-kB RHD (Exaiptasia pallida (Aiptasia), UniProt A0A913YAJ5 2-422)
Sequence: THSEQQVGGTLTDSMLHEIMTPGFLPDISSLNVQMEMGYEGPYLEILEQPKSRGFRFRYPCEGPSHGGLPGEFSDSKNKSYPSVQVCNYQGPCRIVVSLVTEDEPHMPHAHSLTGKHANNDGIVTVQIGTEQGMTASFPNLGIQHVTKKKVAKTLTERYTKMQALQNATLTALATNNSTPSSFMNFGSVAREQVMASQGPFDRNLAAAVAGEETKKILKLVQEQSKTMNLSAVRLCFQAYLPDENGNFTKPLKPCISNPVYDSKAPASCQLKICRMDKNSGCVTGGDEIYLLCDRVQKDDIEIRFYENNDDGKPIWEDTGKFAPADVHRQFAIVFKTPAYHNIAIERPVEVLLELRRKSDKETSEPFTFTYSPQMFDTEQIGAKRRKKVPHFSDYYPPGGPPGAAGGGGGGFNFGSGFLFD
experiment: protein-binding microarray (PBM); PBM: ~300 nM protein, 6 mM HEPES pH 7.8, 80 mM KCl, 0.5 mM EDTA, 0.5 mM EGTA, 6% glycerol, 35 ng/ul poly-dIdC, 1% milk, 1 h, room temperature; high values mean tight binding
assay-setup: dsDNA, one strand shown
value-kind: binding signal (z-score)

{"sequence-data": "CCGATTAACATCAAGGATCCCCCTGATGTTAATCGGGTCTTGATTCGCTTGACGCTGCTG", "numeric-value": 8.01}
{"sequence-data": "CCGATTAACATCAATACCCCCCCTGATGTTAATCGGGTCTTGATTCGCTTGACGCTGCTG", "numeric-value": 6.7}
{"sequence-data": "CCGATTAACATCAATTACCCCCCTGATGTTAATCGGGTCTTGATTCGCTTGACGCTGCTG", "numeric-value": 5.96}
{"sequence-data": "CCGATTAACATCAATTGGGAAAATGATGTTAATCGGGTCTTGATTCGCTTGACGCTGCTG", "numeric-value": 1.52}
{"sequence-data": "CCGATTAACATCAAAATCTCCCCTGATGTTAATCGGGTCTTGATTCGCTTGACGCTGCTG", "numeric-value": 8.53}

====

target-desc: GST-Co-NF-kB (Capsaspora owczarzaki, UniProt F1ARL5 200-546)
Sequence: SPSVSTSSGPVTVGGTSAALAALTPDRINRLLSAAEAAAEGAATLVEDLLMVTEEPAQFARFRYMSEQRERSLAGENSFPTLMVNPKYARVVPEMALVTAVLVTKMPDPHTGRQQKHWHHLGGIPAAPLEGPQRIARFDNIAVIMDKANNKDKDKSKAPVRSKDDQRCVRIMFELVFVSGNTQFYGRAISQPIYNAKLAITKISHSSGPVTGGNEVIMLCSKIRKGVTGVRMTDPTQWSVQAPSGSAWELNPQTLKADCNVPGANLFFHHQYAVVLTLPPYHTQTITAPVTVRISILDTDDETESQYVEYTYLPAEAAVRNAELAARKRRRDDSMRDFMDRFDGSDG
experiment: protein-binding microarray (PBM); PBM: ~300 nM protein, 6 mM HEPES pH 7.8, 80 mM KCl, 0.5 mM EDTA, 0.5 mM EGTA, 6% glycerol, 35 ng/ul poly-dIdC, 1% milk, 1 h, room temperature; Ap Aiptasia and Nv Nematostella (sea anemones) / Co Capsaspora / Aq Amphimedon (sponge) / Dm Drosophila / Hu human; RHD is the Rel homology domain; high values mean tight binding
assay-setup: dsDNA, one strand shown
value-kind: binding signal (z-score)

{"sequence-data": "CCGATTAACATCAATGGGATTTCTGATGTTAATCGGGTCTTGATTCGCTTGACGCTGCTG", "numeric-value": 1.38}
{"sequence-data": "CCGATTAACATCAAATTCCCAAATGATGTTAATCGGGTCTTGATTCGCTTGACGCTGCTG", "numeric-value": 2.55}
{"sequence-data": "CCGATTAACATCAGGAAACCCCATGATGTTAATCGGGTCTTGATTCGCTTGACGCTGCTG", "numeric-value": 1.76}
{"sequence-data": "CCGATTAACATCAGAGCTCCCCCTGATGTTAATCGGGTCTTGATTCGCTTGACGCTGCTG", "numeric-value": 5.45}
{"sequence-data": "CCGATTAACATCAAGGGGTTTTCTGATGTTAATCGGGTCTTGATTCGCTTGACGCTGCTG", "numeric-value": 1.68}
{"sequence-data": "CCGATTAACATCAGGGGGTAACCTGATGTTAATCGGGTCTTGATTCGCTTGACGCTGCTG", "numeric-value": 5.91}
{"sequence-data": "CCGATTAACATCAAAAAAGTCCCTGATGTTAATCGGGTCTTGATTCGCTTGACGCTGCTG", "numeric-value": 2.41}
{"sequence-data": "CCGATTAACATCATACCTCCCGTTGATGTTAATCGGGTCTTGATTCGCTTGACGCTGCTG", "numeric-value": 1.01}
{"sequence-data": "CCGATTAACATCAACAAATCCCCTGATGTTAATCGGGTCTTGATTCGCTTGACGCTGCTG", "numeric-value": 4.14}
{"sequence-data": "CCGATTAACATCAAACTTCCCCTTGATGTTAATCGGGTCTTGATTCGCTTGACGCTGCTG", "numeric-value": 5.46}
{"sequence-data": "CCGATTAACATCACGGGCAGTGGTGATGTTAATCGGGTCTTGATTCGCTTGACGCTGCTG", "numeric-value": 1.25}
{"sequence-data": "CCGATTAACATCAAATTCCCAATTGATGTTAATCGGGTCTTGATTCGCTTGACGCTGCTG", "numeric-value": 2.62}
{"sequence-data": "CCGATTAACATCAGGGGGGGTACTGATGTTAATCGGGTCTTGATTCGCTTGACGCTGCTG", "numeric-value": 4.54}
{"sequence-data": "CCGATTAACATCACGGGAATTCCTGATGTTAATCGGGTCTTGATTCGCTTGACGCTGCTG", "numeric-value": 5.35}
{"sequence-data": "CCGATTAACATCAGTATTCCCCATGATGTTAATCGGGTCTTGATTCGCTTGACGCTGCTG", "numeric-value": 7.15}
{"sequence-data": "CCGATTAACATCAAGATTTCCCATGATGTTAATCGGGTCTTGATTCGCTTGACGCTGCTG", "numeric-value": 4.11}
{"sequence-data": "CCGATTAACATCAGGGAATCACATGATGTTAATCGGGTCTTGATTCGCTTGACGCTGCTG", "numeric-value": 2.22}
{"sequence-data": "CCGATTAACATCAAAAATTCACCTGATGTTAATCGGGTCTTGATTCGCTTGACGCTGCTG", "numeric-value": 1.24}
{"sequence-data": "CCGATTAACATCAGGGTTAGTTGTGATGTTAATCGGGTCTTGATTCGCTTGACGCTGCTG", "numeric-value": 1.11}
{"sequence-data": "CCGATTAACATCAAAAATCCCAGTGATGTTAATCGGGTCTTGATTCGCTTGACGCTGCTG", "numeric-value": 2.44}
{"sequence-data": "CCGATTAACATCACAAAAACCCCTGATGTTAATCGGGTCTTGATTCGCTTGACGCTGCTG", "numeric-value": 2.92}
{"sequence-data": "CCGATTAACATCAAGTGGGAAAATGATGTTAATCGGGTCTTGATTCGCTTGACGCTGCTG", "numeric-value": 2.91}
{"sequence-data": "CCGATTAACATCACCACTTTCCCTGATGTTAATCGGGTCTTGATTCGCTTGACGCTGCTG", "numeric-value": 3.94}
{"sequence-data": "CCGATTAACATCAGGGGACCACCTGATGTTAATCGGGTCTTGATTCGCTTGACGCTGCTG", "numeric-value": 2.22}
{"sequence-data": "CCGATTAACATCACCCCGCATGCTGATGTTAATCGGGTCTTGATTCGCTTGACGCTGCTG", "numeric-value": 1.97}
{"sequence-data": "CCGATTAACATCAAATCCCCCCTTGATGTTAATCGGGTCTTGATTCGCTTGACGCTGCTG", "numeric-value": 6.62}
{"sequence-data": "CCGATTAACATCAAAATTACCCCTGATGTTAATCGGGTCTTGATTCGCTTGACGCTGCTG", "numeric-value": 7.33}
{"sequence-data": "CCGATTAACATCAAAAAATTCCCTGATGTTAATCGGGTCTTGATTCGCTTGACGCTGCTG", "numeric-value": 5.79}
{"sequence-data": "CCGATTAACATCAAGTACTTCCCTGATGTTAATCGGGTCTTGATTCGCTTGACGCTGCTG", "numeric-value": 2.13}
{"sequence-data": "CCGATTAACATCAGGGAGAACCCTGATGTTAATCGGGTCTTGATTCGCTTGACGCTGCTG", "numeric-value": 1.72}
{"sequence-data": "CCGATTAACATCAGGACTCCCCCTGATGTTAATCGGGTCTTGATTCGCTTGACGCTGCTG", "numeric-value": 4.97}
{"sequence-data": "CCGATTAACATCAGAAATTCCCCTGATGTTAATCGGGTCTTGATTCGCTTGACGCTGCTG", "numeric-value": 8.74}
{"sequence-data": "CCGATTAACATCATGGGGGGTAATGATGTTAATCGGGTCTTGATTCGCTTGACGCTGCTG", "numeric-value": 5.06}
{"sequence-data": "CCGATTAACATCACGGGGAATCCTGATGTTAATCGGGTCTTGATTCGCTTGACGCTGCTG", "numeric-value": 8.28}
{"sequence-data": "CCGATTAACATCAGGGGGGATAATGATGTTAATCGGGTCTTGATTCGCTTGACGCTGCTG", "numeric-value": 7.17}
{"sequence-data": "CCGATTAACATCAGAGTGGGAAATGATGTTAATCGGGTCTTGATTCGCTTGACGCTGCTG", "numeric-value": 2.83}
